Where do the numbers come from? From the supplement of paper PMC10037445.

# Tested on: RAW-Dual
# Experiment Notes: NF-kB SEAP reporter activity, fold change vs agonist alone; cytotoxicity flag (confluency mask): not cytotoxic; higher = enhanced NF-kB activity
# Assay Context: agonist: Pam2CSK4 (TLR2/6) 0.1 ug/mL
The full ranking holds about 2,900 compounds; the median of “NF-kB SEAP reporter activity, fold change vs agonist alone” is about 0.99, and the highest 2% start at about 2.6. The sample holds the highest values, similar compounds and a random draw of the others, so the mix is not that of the screen.
Readout: NF-kB SEAP reporter activity
Give your answer as a number; write no unit.

>  <Molecule>
CNC(=O)c1cccc(-c2ccc3c(N4CCOCC4C)nc(N4CCOCC4C)nc3n2)c1 (configuration not stated) (library stock concentration (final ~1000-fold dilution): 10 mM)

>  <NF-kB SEAP reporter activity>
0.376

$$$$

Exercise: Could you tell me which NF-kB SEAP reporter activity is on file for CC1(C(=O)O)CCC2(C)CCC3(C)C(=CC(=O)C4C5(C)CCC(OC6OC(C(=O)O)C(O)C(O)C6OC6OC(C(=O)O)C(O)C(O)C6O)C(C)(C)C5CCC43C)C2C1.N.N (configuration not stated) (library stock concentration (final ~1000-fold dilution): 10 mM) ?
Key: 0.866
